ASSAY METHOD TEXT: Plasma levels of eprinomectin in cattle after topical pour-on administration (HPLC with fluorescence detection)
ASSAY SETUP: bovine, in vivo, topical or ocular, 0.5 mg/kg, mean plasma concentrations, cattle, topical, 408 hours, mean ± SD

{"COMPOUND": "CC[C@H](C)[C@H]1O[C@]2(C=C[C@@H]1C)C[C@@H]1C[C@@H](C/C=C(\\C)[C@@H](O[C@H]3C[C@H](OC)[C@@H](O[C@H]4C[C@H](OC)[C@H](NC(C)=O)[C@H](C)O4)[C@H](C)O3)[C@@H](C)/C=C/C=C3\\CO[C@@H]4[C@H](O)C(C)=C[C@@H](C(=O)O1)[C@]34O)O2 [eprinomectin]", "concentration at 408 h (ng/mL)": 2.9}
